Every entry's value here was drawn from PubChem BioAssay (NCI).

test: NCI Yeast Anticancer Drug Screen. Data for the rad50 strain (AID 155);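 also: 0% = growth of vehicle-only cultures of the same strain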; conditions: S. cerevisiae rad50 strain growth inhibition; at 11.0 µM; stronger effect = higher value
About 79,000 compounds went through this panel and 15% of them were active in at least one assay; those are over-represented in the sample as a whole.
List of growth inhibition values.
Field: numeric (%). Do not append units.

Compound: COc1cccc2c1C(=O)c1c(O)c3c(c(O)c1C2=O)C[C@@](O)(C(C)=O)C[C@@H]3OC1CC(N)C(OC2CC(O)C(O)C(C)O2)C(C)O1 (some centres undefined)
growth inhibition / %: 17

Compound: O=[N+]([O-])c1cc([As](Br)c2ccc(O)c([N+](=O)[O-])c2)ccc1O
growth inhibition / %: 99

Compound: O=C(COc1ccc(Cl)cc1Cl)NO
growth inhibition / %: 10

Compound: C[C@]12CCC(=O)C=C1CC[C@@H]1C2CC[C@@]2(C)C1CC[C@@H]2OC(=O)C12OC1CCC2=O (some centres undefined)
growth inhibition / %: 29

Compound: Cc1c([N+](=O)[O-])oc2ccc3ccccc3c12
growth inhibition / %: 69

Which growth inhibition is reported for this compound? NNc1ccccc1Cl
80

Moving on to O=C(O)CCCc1cc(I)c(N(CCCl)CCCl)c(I)c1
-35

Moving on to Oc1c(Br)cc(Br)cc1Br
5

Moving on to O=C1C=CC(=O)C1(Br)Br
65

Moving on to Cc1ccc2c(c1N)C(=O)c1ccccc1C2=O
40

Moving on to O=S(=O)(O)/C(=C\c1ccccc1)c1ccccc1 (tested in a mixture with another compound)
1

Moving on to CC[PH+](CC)CC.CC[PH+](CC)CC.[Au]
50

Moving on to C[N+]1(CCCl)CC[N+](C)(CCCl)CC1 (centres undefined)
4

Moving on to COC1CC(CC2CCC(C)C(C(C)C(=O)O)O2)OC2(OC(C)(C3CCC(C)(C4OC(C5OC(O)(CO)C(C)CC5C)CC4C)O3)CC2C)C1C (centres undefined)
34

Moving on to COC(COC(=O)N1CCN(C=O)CC1)C1=C(N2CC2)C(=O)C(C)=C(N2CC2)C1=O (centres undefined)
43

Moving on to O=C(c1ccccc1)C1C(c2ccccc2[N+](=O)[O-])N1C1CCCCC1 (centres undefined)
28

Moving on to Oc1cccc2nc3ccccc3nc12
5

Moving on to Cc1cc[n+](C2=C(Nc3cccc(C(F)(F)F)c3)C(=O)c3ccccc3C2=O)cc1
8
